- system: SARS-CoV-2 spike receptor-binding domain (RBD) (SARS-CoV-2, UniProt P0DTC2 319-541)
Each entry below carries its recorded IC50.
Quick reminder: number only, in nM, skip the unit.

Example entries and their recorded answers appear below.
Nb34 (VHH) VHH: DVQLVESGGGLVQAGGSLRLSCAASGFTFSNYVMYWGRQAPGKGREWVSGIDSDGSDTAYASSVKGRFTISRDNAKNTLYLQMNNLKPEDTALYYCVKSKDPYGSPWTRSEFDDYWGQGTQVTVSS	0.63
Nb95 (VHH) VHH: QVQLVESGGGLVQAGGSLRLSCAASGRTFSSYSMGWFRQAQGKEREFVATINGNGRDTYYTNSVKGRFTISRDDATNTVYLQMNSLKPEDTAIYYCAADKDVYYGYTSFPNEYEYWGQGTQVTVSS	6.05
Nb105 (VHH) VHH: HVQLVESGGGLVQAGGSLRLSCAVSGRTFSTYGMAWFRQAPGKERDFVATITRSGETTLYADSVKGRFTISRDNAKNTVYLQMNSLKIEDTAVYYCAVRRDSSWGYSRDLFEYDYWGQGTQVTVSS	0.97

Task item: Endpoint output: IC50 of Nb36 (VHH) VHH: HVQLVESGGGLVQAGGSLTLTCAASGRTFSSETMDMGWFRQAPGKEREFVAADSWNDGSTYYADSVKGRFTISRDSAKNTLYLQMNSLKPEDTAVYYCAAETYSIYEKDDSWGYWGQGTQVTVSS . Value?
Reply: 1.7

Recorded values, source patent US20240043505A1.
